testTarget: T1, recombinant human CD4 (catalogue number: 514-CD/CF, manufactured by R&D Systems) (human, UniProt P01730 26-390)
T1 construct: Bought protein (R&D Systems); also called recombinant CD4
experimentNotes: SPR, Biacore T100; antibody captured on anti-human IgG chip, recombinant human CD4 flowed; 1:1 binding model
propertyLabel: Kd

Task: Suppose we examine the binder anti-CD4 humanized antibody HV4LV0 (antibody, V domains shown, Expressed from the humanized antibody expression vector pKANTEX93) VH: EVQLVESGGGLVQPGRSMRLSCAASGFTFSNYGMAWVRQAPGKGLEWVATISYDGSITYYRDSVKGRFTISRDNSKNTLYLQMNSLRAEDTATYYCTREEQYSSWYFDFWGQGILVTVSS VL: DIQLTQSPSSLSASVGDRVTITCRASQSVSISSHDLMQWYQQKPGKAPKLLIYDAFNLASGVPSRFSGSGSGTDFTLTISSLQPEDFATYYCQQSKDDPYTFGQGTKLEIK ; what Kd value has been reported?
Result: < 0.0126 nM
